# METHOD_DESCRIPTION: Plasma pharmacokinetics after single intravenous bolus dose
# Type: in vivo, cat
# TEST_CONDITIONS: both sexes, plasma, 5 mg/kg; single intravenous bolus 5 mg molidustat sodium per kg
MEASURED_PARAMETER: clearance (mL/min/kg)
Reply numerically in mL/min/kg, unit not repeated.

The reported clearance of the compound `O=c1c(-n2ccnn2)c[nH]n1-c1cc(N2CCOCC2)ncn1` was 5.17

###

# METHOD_DESCRIPTION: Plasma pharmacokinetics, oral bioavailability and dose proportionality after single oral dose
# Type: in vivo, cat
# TEST_CONDITIONS: both sexes, 5.0 mg/kg single oral dose, geometric mean (CV)
MEASURED_PARAMETER: half-life (h)
Reply numerically in h, unit not repeated.

The reported half-life of the compound O=c1c(-n2ccnn2)c[nH]n1-c1cc(N2CCOCC2)ncn1 [molidustat] was 4.6

Numbers sourced from patent US20250161317A1.
